Test system: Microsporum canis
EXPERIMENT: Potency index, ratio of fluconazole MIC to test compound MIC for Microsporum canis
Assay type: functional
OBSERVABLE: Ratio
Give only the figure.

Request: Please give the measured Ratio for this compound: OC(CN(Cc1ccc(F)cc1)C1CC1)(Cn1cncn1)c1ccc(F)cc1F (stereo not given)
Result: 4

Request: Query (compound): OC(CN(Cc1ccccc1F)C1CC1)(Cn1cncn1)c1ccc(F)cc1F (stereo not given) ; field requested: Ratio
Result: 4

Request: // returns reported Ratio for input Cc1ccccc1CN(CC(O)(Cn1cncn1)c1ccc(F)cc1F)C1CC1 (stereo not given)
Result: 4

Request: # query: Ratio of entry OC(CN(Cc1ccc(F)cc1F)C1CC1)(Cn1cncn1)c1ccc(F)cc1F (stereo not given)
Result: 4

Request: Requested read-out: Ratio. Entry: Cc1ccc(CN(CC(O)(Cn2cncn2)c2ccc(F)cc2F)C2CC2)cc1 (stereo not given)
Result: 4

###

Test system: Trichophyton rubrum
EXPERIMENT: Antifungal activity against Trichophyton rubrum after 7 days by NCCLS protocol based method
Format: functional
DETAILS: 168 h
Consider the following molecules; for each one, report its MIC80.

Request: Suppose we examine the molecule O=C(OC1CCN(CC(O)(Cn2cncn2)c2ccc(F)cc2F)CC1)c1cccc(Cl)c1 (centres undefined) ; what MIC80 value has been reported?
Result: 0.0039 to 0.0625 µg/mL

Request: Name the reported MIC80 value associated with the molecule O=C(OC1CCN(CC(O)(Cn2cncn2)c2ccc(F)cc2F)CC1)c1cccc(C(F)(F)F)c1 (centres undefined)
Result: 0.0039 to 0.0625 µg/mL

Request: Which measured MIC80 value corresponds to Cc1cccc(C(=O)OC2CCN(CC(O)(Cn3cncn3)c3ccc(F)cc3F)CC2)c1 (centres undefined) ?
Result: 0.0039 to 0.0625 µg/mL

Request: // MIC80 lookup, key: O=C(OC1CCN(CC(O)(Cn2cncn2)c2ccc(F)cc2F)CC1)c1ccc([N+](=O)[O-])cc1 (centres undefined)
Result: 0.0039 to 0.0625 µg/mL

Request: Given the entry Cc1ccc(C(=O)OC2CCN(CC(O)(Cn3cncn3)c3ccc(F)cc3F)CC2)cc1 (centres undefined) , report its measured MIC80.
Result: 0.0039 to 0.0625 µg/mL

Request: What does the data say about its MIC80? Entry: Cc1ccc(C(=O)OC2CCN(CC(O)(Cn3cncn3)c3ccc(F)cc3F)CC2)cc1C (centres undefined)
Result: 0.0039 to 0.0625 µg/mL

Request: What does the data say about its MIC80? Entry: O=C(OC1CCN(CC(O)(Cn2cncn2)c2ccc(F)cc2F)CC1)c1ccc(F)cc1 (centres undefined)
Result: 0.0039 to 0.0625 µg/mL

Request: Give the measured MIC80 of Cc1ccc(C(=O)OC2CCN(CC(O)(Cn3cncn3)c3ccc(F)cc3F)CC2)c(C)c1 (centres undefined) .
Result: 0.0039 to 0.0625 µg/mL

Request: If you can, please state the reported MIC80 value of O=C(OC1CCN(CC(O)(Cn2cncn2)c2ccc(F)cc2F)CC1)c1ccccc1F (centres undefined) .
Result: 0.0039 to 0.0625 µg/mL

###

System: Kluyveromyces marxianus
EXPERIMENT: Antifungal activity against Candida kefyr
Format: functional
DETAILS: Kluyveromyces marxianus
Exercise: for every item that follows, state its recorded MIC80.

Request: Which MIC80 is listed for OC(CN1CCC(OCc2ccc(F)cc2)CC1)(Cn1cncn1)c1ccc(F)cc1F (centres undefined) ?
Result: 0.01 to 2.33 µM

Request: Dear colleague, I am looking for the recorded MIC80 of the following molecule: N#Cc1ccc(COC2CCN(CC(O)(Cn3cncn3)c3ccc(F)cc3F)CC2)cc1 (centres undefined)
Result: 0.01 to 2.33 µM

Request: I'd like to know its MIC80. The molecule in question is OC(CN1CCC(OCc2ccccc2)CC1)(Cn1cncn1)c1ccc(F)cc1F (centres undefined)
Result: 0.01 to 0.56 µM

Request: Entry OC(CN1CCC(OCc2ccccc2F)CC1)(Cn1cncn1)c1ccc(F)cc1F (centres undefined) : reported MIC80 = ?
Result: 0.01 to 0.56 µM
